# target.of.assay: T1, human GIP receptor (human) (UniProt P48546)
# T1 sequence (looked up): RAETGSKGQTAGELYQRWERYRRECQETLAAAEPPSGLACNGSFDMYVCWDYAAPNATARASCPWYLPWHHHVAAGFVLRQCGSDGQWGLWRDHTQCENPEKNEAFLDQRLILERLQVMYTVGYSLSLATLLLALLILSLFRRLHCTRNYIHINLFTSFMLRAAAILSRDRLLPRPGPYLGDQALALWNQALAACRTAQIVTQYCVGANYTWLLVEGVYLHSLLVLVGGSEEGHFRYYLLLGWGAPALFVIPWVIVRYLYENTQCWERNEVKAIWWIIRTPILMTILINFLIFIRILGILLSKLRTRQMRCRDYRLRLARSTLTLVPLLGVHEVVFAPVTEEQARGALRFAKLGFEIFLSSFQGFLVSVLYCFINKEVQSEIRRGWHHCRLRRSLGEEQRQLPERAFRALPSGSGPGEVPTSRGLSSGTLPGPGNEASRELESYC
# assay.name: cell-based or functional assay
Starred links: 1 amine or outer side, 2 acyl side, 3 side chain; linkers in the order of their positions; H or OH if unused. Non-standard residues stand in square brackets, D forms with d. Groups on a side chain read outwards from the residue. No end group written: not given here. *: point of attachment. C20 diacid = O=C(O)CCCCCCCCCCCCCCCCCCC(=O)*; γGlu = O=C(O)[C@H](CCC(=O)[*:2])N[*:1]; NMeY = CN[C@@H](Cc1ccc(O)cc1)C(=O)O; αMeF = C[C@](N)(Cc1ccccc1)C(=O)O; αMeL = CC(C)C[C@](C)(N)C(=O)O; AEEA = NCCOCCOCC(=O)O; Aib = CC(C)(N)C(=O)O

binder	Relative cAMP EC50 [pM]
YXQGTXTSDYSSLLDKKAQXAFIEYLEEGGPSSGAPPPS (synthetic construct; SITE 2: note = 2-Aminoisobutyric Acid; SITE 6: note = alpha-methyl-2-fluoro-L-phenylalanine; SITE 17: note = Lysine is chemically modified through conjugation of the epsilon-amino group of the Lysine side chain with (2-[2-(2-Amino-ethoxy)-ethoxy]-acetyl)-(gamma-Glu)-CO-(CH2) 16-) [Example 409]	363
YXQGTXTSDXSILLDKKAQXAFIEYLEEGGPSSGAPPPS (not fully specified; synthetic construct; SITE 2: note = 2-Aminoisobutyric Acid; SITE 6: note = alpha-methyl-2-fluoro-L-phenylalanine; SITE 10: note = 3-(4-Pyridyl)-L-alanine; SITE 17: note = Lysine is chemically modified through conjugation of the epsilon-amino group of the Lysine side chain with (gamma-Glu)2-CO-(CH2)1) [Example 413]	88.1
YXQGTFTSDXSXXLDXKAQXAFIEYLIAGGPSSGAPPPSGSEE (Lys acylated γGlu-C18 diacid; non-natural residues; C-amide; synthetic construct; SITE 2: note = 2-Aminoisobutyric Acid; SITE 10: note = 3-(4-Pyridyl)-L-alanine; SITE 12: note = L-ornithine; SITE 13: note = alpha-methyl-leucine; SITE 16: note = L-ornithine; SITE 17: note = Lysine is chemically modified through conjugation of the epsilon-amino group of the Lys) [Example 1063]	318
YXQGTXTSDXSIXLDXKAQXEFIEXLIEGGPSSGAPPPSGS (non-natural residues; Lys acylated C18 diacid; C-terminal amide; synthetic construct; SITE 2: note = 2-Aminoisobutyric Acid; SITE 6: note = alpha-methyl-2-fluoro-L-phenylalanine; SITE 10: note = 3-(4-Pyridyl)-L-alanine; SITE 13: note = alpha-methyl-leucine; SITE 16: note = L-ornithine; SITE 17: note = Lysine is chemically modified through conjugation of the epsil) [Example 640]	6.96
[NMeY][Aib]QGT[αMeF]TSDYSILLDKQAAK([AEEA-AEEA-γGlu-C20 diacid])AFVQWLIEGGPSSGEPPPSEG-NH2 [Example 302]	700
YXQGTFTSDFSXXLDKKAQXAFIEYLLEGGPSSGAPPPGGX (synthetic construct; SITE 2: note = 2-Aminoisobutyric Acid; SITE 12: note = L-ornithine; SITE 13: note = alpha-methyl-leucine; SITE 17: note = Lysine is chemically modified through conjugation of the epsilon-amino group of the Lysine side chain with (2-[2-(2-Amino-ethoxy)-ethoxy]-acetyl)-(gamma-Glu)) [Example 261]	290
YXQGTXTSDXSIXLDKKAQXXFIEYLAEGGPSSGEPPPSGSEE (non-natural residues; C18 diacid-(γ-Glu)2 acyl on Lys; C-terminal amide; synthetic construct; SITE 2: note = 2-Aminoisobutyric Acid; SITE 6: note = alpha-methyl-2-fluoro-L-phenylalanine; SITE 10: note = 3-(4-Pyridyl)-L-alanine; SITE 13: note = alpha-methyl-leucine; SITE 17: note = Lysine is chemically modified through conjugation of the epsilon-amino group of the Lysine) [Example 636]	54
Y[Aib]QGTFTSDYSI[αMeL]LDKQAAK([AEEA-AEEA-γGlu-C20 diacid])QFVNWLLA[Aib]GPSSGEPPPSEG-NH2 [Example 325]	351
YXQGTFTSDYSKXLDKKAQXAFVQWLLEGGPSSGEPPPSEG (not fully specified; synthetic construct; SITE 2: note = 2-Aminoisobutyric Acid; SITE 13: note = alpha-methyl-leucine; SITE 17: note = Lysine is chemically modified through conjugation of the epsilon-amino group of the Lysine side chain with (2-[2-(2-Amino-ethoxy)-ethoxy]-acetyl)-(gamma-Glu)-CO-(CH2) 18-CO2H; SITE 20: n) [Example 343]	184
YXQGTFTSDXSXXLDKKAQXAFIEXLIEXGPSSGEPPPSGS (Aib, 4Pal, Orn, αMeL, Me4Pal, acylated K, C-terminal amide; synthetic construct; SITE 2: note = 2-Aminoisobutyric Acid; SITE 10: note = 3-(4-Pyridyl)-L-alanine; SITE 12: note = L-ornithine; SITE 13: note = alpha-methyl-leucine; SITE 17: note = Lysine is chemically modified through conjugation of the epsilon-amino group of the Lysine side chain with (2-[2-(2-) [Example 987]	194
YXQGTFTSDFSXXLDKKAQXAFIEYLIEXGESSGAPPPSGS (acylated Lys, C-terminal amide, non-natural residues; synthetic construct; SITE 2: note = 2-Aminoisobutyric Acid; SITE 12: note = L-ornithine; SITE 13: note = alpha-methyl-leucine; SITE 17: note = Lysine is chemically modified through conjugation of the epsilon-amino group of the Lysine side chain with (2-[2-(2-Amino-ethoxy)-ethoxy]-acetyl)-(gamma-Glu)) [Example 218]	85.3
YXQGTXTSDXSIXLDXKAAXAFIEXLLEGGPSSGEPPPS (synthetic construct; SITE 2: note = 2-Aminoisobutyric Acid; SITE 6: note = alpha-methyl-2-fluoro-L-phenylalanine; SITE 10: note = 3-(4-Pyridyl)-L-alanine; SITE 13: note = alpha-methyl-leucine; SITE 16: note = L-ornithine; SITE 17: note = Lysine is chemically modified through conjugation of the epsil) [Example 1236]	52
YXQGTFTSDXSXXLDKKAQXAFIEWLLEGGPSSGEPPPSGE (synthetic construct; SITE 2: note = 2-Aminoisobutyric Acid; SITE 10: note = 3-(4-Pyridyl)-L-alanine; SITE 12: note = L-ornithine; SITE 13: note = alpha-methyl-leucine; SITE 17: note = Lysine is chemically modified through conjugation of the epsilon-amino group of the Lysine side chain with (2-[2-(2-) [Example 115]	457
YXQGTXTSDXXIXLDXKAQXEFIEXLIEGGPPSXXPPPSGGGE (Lys acylated with AEEA-γGlu-C18 diacid; non-natural residues; C-amide; synthetic construct; SITE 2: note = 2-Aminoisobutyric Acid; SITE 6: note = alpha-methyl-2-fluoro-L-phenylalanine; SITE 10: note = 3-(4-Pyridyl)-L-alanine; SITE 11: note = alpha-methyl-L-serine; SITE 13: note = alpha-methyl-leucine; SITE 16: note = L-ornithine; SITE 17: note = Lysine is chemically mo) [Example 1199]	7.6
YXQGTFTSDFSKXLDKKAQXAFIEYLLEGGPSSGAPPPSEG (synthetic construct; SITE 2: note = 2-Aminoisobutyric Acid; SITE 13: note = alpha-methyl-leucine; SITE 17: note = Lysine is chemically modified through conjugation of the epsilon-amino group of the Lysine side chain with (gamma-Glu)2-CO-(CH2)16-CO2H; SITE 20: note = 2-Aminoisobutyric Acid; SITE 41:) [Example 58]	175
YXQGTFTSDXSKXLDKKAQXAFIEYLIEGGPSSGAPPPSGS (synthetic construct; SITE 2: note = 2-Aminoisobutyric Acid; SITE 10: note = 3-(4-Pyridyl)-L-alanine; SITE 13: note = alpha-methyl-leucine; SITE 17: note = Lysine is chemically modified through conjugation of the epsilon-amino group of the Lysine side chain with (2-[2-(2-Amino-ethoxy)-ethoxy]-acetyl)) [Example 908]	246
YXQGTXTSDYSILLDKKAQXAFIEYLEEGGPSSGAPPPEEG (synthetic construct; SITE 2: note = 2-Aminoisobutyric Acid; SITE 6: note = alpha-methyl-2-fluoro-L-phenylalanine; SITE 17: note = Lysine is chemically modified through conjugation of the epsilon-amino group of the Lysine side chain with (2-[2-(2-Amino-ethoxy)-ethoxy]-acetyl)-(gamma-Glu)-CO-(CH2) 16-) [Example 399]	41.3
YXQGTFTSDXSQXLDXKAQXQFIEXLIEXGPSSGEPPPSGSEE (not fully specified; non-natural residues; Lys acylated C18 diacid via γGlu; C-term amide; synthetic construct; SITE 2: note = 2-Aminoisobutyric Acid; SITE 10: note = 3-(4-Pyridyl)-L-alanine; SITE 13: note = alpha-methyl-leucine; SITE 16: note = L-ornithine; SITE 17: note = Lysine is chemically modified through conjugation of the epsilon-amino group of the Lysine side chain with D-Glutami) [Example 1104]	90
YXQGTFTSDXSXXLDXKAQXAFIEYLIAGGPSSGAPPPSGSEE (acylated Lys, C-terminal amide, non-natural residues; synthetic construct; SITE 2: note = 2-Aminoisobutyric Acid; SITE 10: note = 3-(4-Pyridyl)-L-alanine; SITE 12: note = L-ornithine; SITE 13: note = alpha-methyl-leucine; SITE 16: note = L-ornithine; SITE 17: note = Lysine is chemically modified through conjugation of the epsilon-amino group of the Lys) [Example 1059]	468
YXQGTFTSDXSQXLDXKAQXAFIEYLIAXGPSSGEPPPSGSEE (non-natural residues, C-terminal amide, acylated Lys with fatty diacid; synthetic construct; SITE 2: note = 2-Aminoisobutyric Acid; SITE 10: note = 3-(4-Pyridyl)-L-alanine; SITE 13: note = alpha-methyl-leucine; SITE 16: note = L-ornithine; SITE 17: note = Lysine is chemically modified through conjugation of the epsilon-amino group of the Lysine side chain with (2-[2-(2-) [Example 1095]	65
YXQATXTSDXXIXLDXKAQXEFIEXLVEGGPSSGAPPPSGS (synthetic construct; SITE 2: note = 2-Aminoisobutyric Acid; SITE 4: note = D-amino acid; SITE 6: note = alpha-methyl-2-fluoro-L-phenylalanine; SITE 10: note = 3-(4-Pyridyl)-L-alanine; SITE 11: note = alpha-methyl-L-serine; SITE 13: note = alpha-methyl-leucine; SITE 16: note = L-ornithine; SITE 17: n) [Example 1204]	210
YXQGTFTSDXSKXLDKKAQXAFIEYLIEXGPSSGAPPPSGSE (synthetic construct; SITE 2: note = 2-Aminoisobutyric Acid; SITE 10: note = 3-(4-Pyridyl)-L-alanine; SITE 13: note = alpha-methyl-leucine; SITE 17: note = Lysine is chemically modified through conjugation of the epsilon-amino group of the Lysine side chain with (gamma-Glu)2-CO-(CH2)16-CO2H; SITE 20:) [Example 904]	194
YXQGTFTSDFSQXLDKKAQXAFIEYLLEAGPSSGAPPPSGS (synthetic construct; SITE 2: note = 2-Aminoisobutyric Acid; SITE 13: note = alpha-methyl-leucine; SITE 17: note = Lysine is chemically modified through conjugation of the epsilon-amino group of the Lysine side chain with (2-[2-(2-Amino-ethoxy)-ethoxy]-acetyl)-(gamma-Glu)-CO-(CH2) 16-CO2H; SITE 20: n) [Example 775]	105
YXQGTXTSDXSIXLDKKAQXXFIEYLAEGGPSSGEPPPEGSEE (synthetic construct; SITE 2: note = 2-Aminoisobutyric Acid; SITE 6: note = alpha-methyl-2-fluoro-L-phenylalanine; SITE 10: note = 3-(4-Pyridyl)-L-alanine; SITE 13: note = alpha-methyl-leucine; SITE 17: note = Lysine is chemically modified through conjugation of the epsilon-amino group of the Lysine) [Example 650 (SEQ ID NO: 656)]	81.4
